Molecular target: T1, GST–PPARα fusion protein (purified ligand binding domain of PPARα)
T1 sequence (Q07869 whole entry, species assumed, looked up): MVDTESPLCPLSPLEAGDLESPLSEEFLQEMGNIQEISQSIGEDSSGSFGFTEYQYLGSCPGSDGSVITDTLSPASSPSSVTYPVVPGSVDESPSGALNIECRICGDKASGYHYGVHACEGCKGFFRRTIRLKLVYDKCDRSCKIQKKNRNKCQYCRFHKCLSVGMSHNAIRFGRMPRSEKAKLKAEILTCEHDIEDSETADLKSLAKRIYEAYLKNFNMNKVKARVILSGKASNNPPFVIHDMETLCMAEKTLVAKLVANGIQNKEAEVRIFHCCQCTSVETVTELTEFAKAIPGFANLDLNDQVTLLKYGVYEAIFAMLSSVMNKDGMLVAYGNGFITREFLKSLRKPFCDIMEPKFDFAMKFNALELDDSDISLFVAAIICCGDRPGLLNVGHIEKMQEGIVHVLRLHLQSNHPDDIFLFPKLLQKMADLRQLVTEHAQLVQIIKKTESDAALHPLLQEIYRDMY
Test: FRET or BRET; homogeneous TR-FRET as a1, 12-concentration dose–response of tesaglitazar; the EC50 is of the compound; delta ratio in % of the reference compound at 10 μM (RO4899100 for PPARα, edaglitazone for PPARγ)
Where no end group is shown, it is not given here. The star is where a group is joined. Biotin = O=C1N[C@H]2[C@H](CS[C@H]2CCCCC(=O)*)N1; Ahx = NCCCCCC(=O)O
measure: delta ratio with tesaglitazar (%)
Reply with just the number (in %).

Worked examples follow.
binder: {Biotin-Ahx}-AVQEHASTNMGLEAIIRKALMGKYD (silencing mediator of retinoid and thyroid hormone receptors (SMRT), ID2, residues 2331-2355; also called SMRT2; source: synthetic peptide (Jerini or Biosynthan, Berlin))
measure: delta ratio with tesaglitazar
result_value: -26
--
binder: {Biotin-Ahx}-ADPASNLGLEDIIRKALMGSF (nuclear receptor co-repressor (NCoR), ID2; also called NCoR2; NcoR2; source: synthetic peptide (Jerini or Biosynthan, Berlin)) [NCoR ID2 cofactor peptide (nuclear receptor co-repressor, interaction domain 2)]
measure: delta ratio with tesaglitazar
result_value: -54
--
binder: {Biotin-Ahx}-STHGTSLKEKHKILHRLLQDS [TIF2_M2 cofactor peptide (transcriptional intermediary factor 2, motif 2)]
measure: delta ratio with tesaglitazar
result_value: 54
--
binder: {Biotin-Ahx}-SRLHDSKGQTKLLQLLTTKSD (transcriptional intermediary factor 2 (TIF2), motif 1, residues 630-650; source: synthetic peptide (Jerini or Biosynthan, Berlin)) [TIF2_M1 cofactor peptide (transcriptional intermediary factor 2, motif 1)]
measure: delta ratio with tesaglitazar
result_value: 70
--
binder: {Biotin-Ahx}-LDASKKKESKDHQLLRYLLDKDEKD (source: synthetic peptide (Jerini or Biosynthan, Berlin)) [SRC1_M3 cofactor peptide (steroid receptor co-activator 1, motif 3)]
measure: delta ratio with tesaglitazar
result_value: 52

Could you share which delta ratio with tesaglitazar value was measured for {Biotin-Ahx}-SPKKKENALLRYLLDKDDTK [TIF2_M3 cofactor peptide (transcriptional intermediary factor 2, motif 3)] ? 53

Tell me the measured delta ratio with tesaglitazar of {Biotin-Ahx}-PKKENNALLRYLLDRDDPSDV (source: synthetic peptide (Jerini or Biosynthan, Berlin)) [RAC3_M3 cofactor peptide (receptor-associated co-activator 3, motif 3)] , please. 60
